target: UniProtKB P13631
Sequence (P13631 whole entry, species assumed): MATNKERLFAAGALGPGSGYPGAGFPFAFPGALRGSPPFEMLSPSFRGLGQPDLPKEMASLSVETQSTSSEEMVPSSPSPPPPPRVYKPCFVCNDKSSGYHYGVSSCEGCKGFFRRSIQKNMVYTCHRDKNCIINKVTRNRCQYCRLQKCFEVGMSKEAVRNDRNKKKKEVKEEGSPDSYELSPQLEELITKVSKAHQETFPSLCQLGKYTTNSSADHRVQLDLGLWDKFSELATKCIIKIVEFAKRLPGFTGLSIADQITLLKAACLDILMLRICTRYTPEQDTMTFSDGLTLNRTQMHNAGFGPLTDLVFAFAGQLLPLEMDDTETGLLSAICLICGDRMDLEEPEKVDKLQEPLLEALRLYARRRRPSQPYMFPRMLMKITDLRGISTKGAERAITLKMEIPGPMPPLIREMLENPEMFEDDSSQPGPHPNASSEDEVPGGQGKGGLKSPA
pKd: −log10 of the molar value.
quantity: pKd

Query: Which measured pKd value corresponds to CC(C)(C)c1cc(C(=O)Nc2ccc(C(=O)O)cc2)cc(C(C)(C)C)c1 [Compound 15, reference compound] ?
Reply: < 6.00

###

Target: RARα (Homo sapiens)
Sequence (P10276 1-462): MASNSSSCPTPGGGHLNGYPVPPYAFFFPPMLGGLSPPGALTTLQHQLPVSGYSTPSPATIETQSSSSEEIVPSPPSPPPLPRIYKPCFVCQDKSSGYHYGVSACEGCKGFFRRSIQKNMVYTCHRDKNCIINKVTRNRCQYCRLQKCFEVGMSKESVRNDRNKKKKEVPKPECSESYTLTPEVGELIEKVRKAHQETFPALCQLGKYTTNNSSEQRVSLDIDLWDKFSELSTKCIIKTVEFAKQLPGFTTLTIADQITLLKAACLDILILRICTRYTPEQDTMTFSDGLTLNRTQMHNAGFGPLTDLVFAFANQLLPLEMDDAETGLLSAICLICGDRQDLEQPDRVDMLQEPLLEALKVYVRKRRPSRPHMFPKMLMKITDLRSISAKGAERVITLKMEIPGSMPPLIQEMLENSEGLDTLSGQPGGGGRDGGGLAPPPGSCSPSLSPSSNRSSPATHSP
quantity: Kd (nM)
Note: unit nM is implicit; provide only the numeric part.

Query: Kd; subject: CC(C)(C)c1cc(C(=O)Nc2ccc(C(=O)O)cc2)cc(C(C)(C)C)c1 [Compound 15, reference compound]
Reply: 37

###

Target: RXRα (Homo sapiens, UniProt P19793)
Sequence (P19793 1-462): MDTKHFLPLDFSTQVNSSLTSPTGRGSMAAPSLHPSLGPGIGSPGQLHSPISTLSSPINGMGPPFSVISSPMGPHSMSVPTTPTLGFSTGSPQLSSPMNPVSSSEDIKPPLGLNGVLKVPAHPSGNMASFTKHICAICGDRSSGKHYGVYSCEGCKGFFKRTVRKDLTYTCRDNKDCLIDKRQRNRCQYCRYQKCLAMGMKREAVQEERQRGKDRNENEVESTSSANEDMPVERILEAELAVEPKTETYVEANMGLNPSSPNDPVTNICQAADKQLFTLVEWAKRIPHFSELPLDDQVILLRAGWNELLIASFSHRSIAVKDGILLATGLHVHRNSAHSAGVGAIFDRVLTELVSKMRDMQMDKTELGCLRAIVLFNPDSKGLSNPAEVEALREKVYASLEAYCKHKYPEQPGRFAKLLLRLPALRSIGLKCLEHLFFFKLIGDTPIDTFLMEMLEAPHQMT
pKd: −log10 of the molar value.
Listed here are compounds together with their documented pKd.

compound	tgt	pKd
CC(C)(C)c1cc(C(=O)Nc2ccc(C(=O)O)cc2)cc(C(C)(C)C)n1 [Compound 4]	RXRα (Homo sapiens, UniProt P19793)	< 6.00

With those in mind, consider the next compound.
Query: So what's the measured pKd for this one? CC(C)(C)c1cc(C(=O)Nc2ccc(C(=O)O)cc2)cc(C(C)(C)C)c1 [Compound 15, reference compound]
Reply: < 6.00

###

Each entry below lists one item and its recorded Kd value.
target: RXRΓ (UniProt P28705); construct: All six receptor types were derived from the expressed receptor type (RAR α, β, Γ and RXR α, β, Γ) expressed in Baculovirus; test: Ligand binding assay, RXRΓ; settings: receptor expressed in Baculovirus; Cheng-Prussof from IC50

Query: # get_value(readout='Kd', item= CC(C)(C)c1cc(C(=O)Nc2ccc(C(=O)O)cc2)cc(C(C)(C)C)c1 [Compound 15, reference compound] )
Reply: > 1 µM

Query: Moving on to CC(C)(C)c1cc(C(=O)Nc2ccc(C(=O)O)c(F)c2)c(O)c(C(C)(C)C)c1 [Compound 8]
Reply: > 1 µM

Query: Do the same for CC(C)(C)c1cc(C(=O)Nc2ccc(C(=O)O)c([N+](=O)[O-])c2)cc(C(C)(C)C)n1 [Compound 14] please
Reply: > 1 µM
